src = ChEMBL document CHEMBL4261600

Experiment: AUC (0 to t) in mouse at 3 mg/kg, iv by LC-MS/MS analysis
Assay type: ADME, organism-based
Details: in vivo
measurement type: AUC(0-t)
Report field: quantity (unit follows the number).

Q: # input molecule: COCCN[C@H]1CC[C@H](Nc2cc(-c3csc(NCC4(C#N)CCOCC4)n3)c(Cl)cn2)CC1 ; wanted: its AUC(0-t)
Ans: 393 ng·h/mL

###

Assay: AUC (0 to infinity) in mouse at 10 mg/kg, po by LC-MS/MS analysis
Assay type: ADME, organism-based
Design: dose 10 mg/kg, route oral, time infinity
Conditions: in vivo
measurement type: AUC(0-inf) (ng·h/mL)
Your answer should be a plain number; it is taken to be in ng·h/mL.

Q: # input compound: COCCN[C@H]1CC[C@H](Nc2cc(-c3csc(NCC4(C#N)CCOCC4)n3)c(Cl)cn2)CC1 ; wanted: its AUC(0-inf)
Ans: 612

###

Target: UniProtKB P50750
Sequence (P50750 whole entry, the tested form may be a part): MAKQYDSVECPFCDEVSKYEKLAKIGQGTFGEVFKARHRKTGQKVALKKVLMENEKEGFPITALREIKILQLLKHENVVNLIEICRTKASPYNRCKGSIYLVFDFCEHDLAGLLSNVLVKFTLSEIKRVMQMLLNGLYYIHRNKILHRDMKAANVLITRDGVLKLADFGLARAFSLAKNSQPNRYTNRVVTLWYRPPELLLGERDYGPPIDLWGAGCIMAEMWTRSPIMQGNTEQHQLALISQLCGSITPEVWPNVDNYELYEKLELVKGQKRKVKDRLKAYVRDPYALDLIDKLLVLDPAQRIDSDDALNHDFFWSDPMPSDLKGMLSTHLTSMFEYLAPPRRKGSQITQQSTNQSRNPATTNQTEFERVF
Experiment: Inhibition of CDK9 in human HL60 cells assessed as decrease in RNA polymerase 2 phosphorylation at Ser 2 residues in CTD domain after 2 hrs by immunoblotting analysis
Assay type: cell-based
measurement type: EC50

Q: # input compound: COCCN[C@H]1CC[C@H](Nc2cc(-c3csc(NCC4(C#N)CCOCC4)n3)c(Cl)cn2)CC1 ; wanted: its EC50
Ans: < 100 nM

###

Experiment: Cmax in Sprague-Dawley rat at 3 mg/kg, iv by LC-MS/MS analysis
Assay type: ADME, organism-based
Parameters: dose 3 mg/kg, route intravenous
Settings: in vivo
measurement type: Cmax (ng/mL)
Your answer should be a plain number; it is taken to be in ng/mL.

Q: # input compound: COCCN[C@H]1CC[C@H](Nc2cc(-c3csc(NCC4(C#N)CCOCC4)n3)c(Cl)cn2)CC1 ; wanted: its Cmax
Ans: 1470

###

Assay: Tmax in mouse at 10 mg/kg, po by LC-MS/MS analysis
Type: ADME, organism-based
Conditions: in vivo
measurement type: Tmax (h)
Your answer should be a plain number; it is taken to be in h.

Q: # input molecule: COCCN[C@H]1CC[C@H](Nc2cc(-c3csc(NCC4(C#N)CCOCC4)n3)c(Cl)cn2)CC1 ; wanted: its Tmax
Ans: 2

###

Target: Cyclin-dependent kinase 5/CDK5 activator 1 (Homo sapiens)
Sequence (Q00535 whole entry): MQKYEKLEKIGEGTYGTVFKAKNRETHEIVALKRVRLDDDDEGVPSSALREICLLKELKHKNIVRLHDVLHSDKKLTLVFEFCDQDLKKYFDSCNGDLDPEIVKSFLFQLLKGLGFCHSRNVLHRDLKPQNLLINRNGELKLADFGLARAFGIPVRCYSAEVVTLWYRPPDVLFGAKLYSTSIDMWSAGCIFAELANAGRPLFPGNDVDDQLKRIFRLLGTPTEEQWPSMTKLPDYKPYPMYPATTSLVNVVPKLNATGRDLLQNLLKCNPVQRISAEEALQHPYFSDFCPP
Sequence (Q15078 whole entry, further chain): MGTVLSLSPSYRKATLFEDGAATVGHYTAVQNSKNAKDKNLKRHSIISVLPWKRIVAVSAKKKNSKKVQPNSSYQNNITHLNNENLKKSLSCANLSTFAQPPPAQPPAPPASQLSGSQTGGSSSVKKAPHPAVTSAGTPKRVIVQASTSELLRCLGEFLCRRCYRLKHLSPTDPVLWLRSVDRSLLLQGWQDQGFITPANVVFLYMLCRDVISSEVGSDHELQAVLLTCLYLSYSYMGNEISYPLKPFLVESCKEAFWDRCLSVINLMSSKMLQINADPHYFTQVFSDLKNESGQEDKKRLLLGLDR
Assay: Inhibition of recombinant full length His/GST-tagged human CDK5/p25 expressed in baculovirus expression system
measurement type: IC50 (µM)
Your answer should be a plain number; it is taken to be in µM.

Q: # input compound: COCCN[C@H]1CC[C@H](Nc2cc(-c3csc(NCC4(C#N)CCOCC4)n3)c(Cl)cn2)CC1 ; wanted: its IC50
Ans: 4.64

###

Assay: Apparent volume of distribution in beagle dog at 2 mg/kg, iv by LC-MS/MS analysis
Assay type: ADME, organism-based, Canis lupus familiaris
Details: in vivo, read-out: Vz
measurement type: Vd (L/kg)
Your answer should be a plain number; it is taken to be in L/kg.

Q: # input compound: COCCN[C@H]1CC[C@H](Nc2cc(-c3csc(NCC4(C#N)CCOCC4)n3)c(Cl)cn2)CC1 ; wanted: its Vd
Ans: 12.8

###

Assay: MRT (0 to t) in mouse at 10 mg/kg, po by LC-MS/MS analysis
Format: ADME, organism-based
Settings: in vivo
measurement type: MRT last (h)
Your answer should be a plain number; it is taken to be in h.

Q: # input compound: COCCN[C@H]1CC[C@H](Nc2cc(-c3csc(NCC4(C#N)CCOCC4)n3)c(Cl)cn2)CC1 ; wanted: its MRT last
Ans: 3.24
